- assay-target: Diaphorase
- assay-method-text: peptide array, 10 uM labeled diaphorase, with FAD
test-readout: fluorescence

[[record]]
binder = "EAVQKLLFSGSG"
result_value = 17700

[[record]]
binder = "YSVDYWYQVDGSG"
result_value = 19200


1: LLGFLGGSG
2: YNRNAKSSGGSG
Exercise: Identify the item whose fluorescence is the smaller number: 1 or 2 // respond with label for picked entry
Key: 2
